# merged literature set: IC50 with SYK kinase (Homo sapiens)

// known answers, use as guide
[[record]]
compound = "CS(=O)(=O)c1ccc2c(c1)nc(Nc1ccc3c(c1)NC(=O)CCC3)c1[nH]ncc12"
recorded_metric = "IC50"
reported = "10 to 100 nM"

[[record]]
compound = "CONC(=O)Cc1ccc(Nc2nc(NC3C4C=CC(C4)C3C(N)=O)c3nc[nH]c3n2)cc1 (racemic)"
recorded_metric = "IC50"
reported = "> 10000 nM"

[[record]]
compound = "O=C1OCCN1c1ccc(Nc2nc(-c3ccco3)nc3cn[nH]c23)cc1"
recorded_metric = "IC50"
reported = "10 to 100 nM"


Considering "Cc1cccc(Nc2nc3c(NCCCN4CCN(C)CC4)nccn3n2)c1" , its IC50 with SYK kinase (Homo sapiens) was recorded as 3000 to 50000 nM
